Every entry's value here was drawn from ChEMBL document CHEMBL1287679.

- assay-name: Toxicity in Erythrocyte assessed as concentration required to achieve 100% hemolysis after 4 hrs
- Type: cell-based
Where a SMILES comes first, the peptide text is derived from it. [ ]: non-standard residue; d: D form.
Below, each entry is listed alongside its reported Activity.
Respond numerically; units are µM and should not be typed.

molecule	property-name	observed
CC(C)C[C@@H]1NC(=O)[C@H](CCCCN)NC(=O)[C@H](C(C)C)NC(=O)[C@@H]2CCCN2C(=O)[C@@H](Cc2ccc(O)cc2)NC(=O)[C@H](CC(C)C)NC(=O)[C@H](CCCCN)NC(=O)[C@H](C(C)C)NC(=O)[C@H](CCCCN)NC(=O)[C@H](CC(C)C)NC(=O)[C@@H]2CCCN2C(=O)[C@@H](Cc2ccc(O)cc2)NC(=O)[C@H](C(C)C)NC(=O)[C@H](CCCCN)NC1=O (cyclo(KLKV[dY]PLKVKL[dY]PV))	Activity	3.9

Problem: Record request: Activity value, item CC(C)C[C@@H]1NC(=O)[C@H](CCCN)NC(=O)[C@H](C(C)C)NC(=O)[C@H](CCCN)NC(=O)[C@@H]2CCCN2C(=O)[C@@H](Cc2ccccc2)NC(=O)[C@H](CCCN)NC(=O)[C@H](CC(C)C)NC(=O)[C@H](CCCN)NC(=O)[C@H](C23CC4CC(CC(C4)C2)C3)NC(=O)[C@H](CCCN)NC(=O)[C@@H]2CCCN2C(=O)[C@@H](Cc2ccccc2)NC(=O)[C@H](CCCN)NC1=O
Solution: 125

---

Below, each entry is listed alongside its reported MIC.
- System: Staphylococcus aureus
- assay-name: Antimicrobial activity against methicillin-resistant Staphylococcus aureus isolate 1110301981 by broth dilution method
- Assay type: functional
Respond numerically; units are µg/mL and should not be typed.

smiles-notation	units-of-measure	MIC
CC(C)C[C@@H]1NC(=O)[C@H](CCCN)NC(=O)[C@H](C(C)C)NC(=O)[C@H](CCCN)NC(=O)[C@@H]2CCCN2C(=O)[C@@H](Cc2ccccc2)NC(=O)[C@H](CCCN)NC(=O)[C@H](CC23CC4CC(CC(C4)C2)C3)NC(=O)[C@H](CCCN)NC(=O)[C@H](C(C)C)NC(=O)[C@H](CCCN)NC(=O)[C@@H]2CCCN2C(=O)[C@@H](Cc2ccccc2)NC(=O)[C@H](CCCN)NC1=O	µg/mL	8

--- query ---
Problem: Record request: MIC value, item CC(C)C[C@@H]1NC(=O)[C@H](CCCN)NC(=O)[C@H](C(C)C)NC(=O)[C@H](CCCN)NC(=O)[C@@H]2CCCN2C(=O)[C@@H](Cc2ccccc2)NC(=O)[C@H](CCCN)NC(=O)[C@H](CC23CC4CC(CC(C4)C2)C3)NC(=O)[C@H](CCCN)NC(=O)[C@H](C23CC4CC(CC(C4)C2)C3)NC(=O)[C@H](CCCN)NC(=O)[C@@H]2CCCN2C(=O)[C@@H](Cc2ccccc2)NC(=O)[C@H](CCCN)NC1=O
Solution: 16

---

- assay-name: Therapeutic index, concentration required to achieve 100% hemolysis in erythrocyte to MIC for Escherichia coli ATCC 25922
- condition-context: erythrocytes
Where a SMILES comes first, the peptide text is derived from it. [ ]: non-standard residue; d: D form. Gly(1-adamantyl) = N[C@H](C(=O)O)C12CC3CC(CC(C3)C1)C2; Orn = NCCC[C@H](N)C(=O)O
property-name: selectivity ratio
In your answer, state the number alone without any accompanying words.

Here is how some molecules turned out for selectivity ratio.
molecule	selectivity ratio
CC(C)C[C@@H]1NC(=O)[C@H](CCCN)NC(=O)[C@H](C(C)C)NC(=O)[C@H](CCCN)NC(=O)[C@@H]2CCCN2C(=O)[C@@H](Cc2ccccc2)NC(=O)[C@H](CCCN)NC(=O)[C@H](CC23CC4CC(CC(C4)C2)C3)NC(=O)[C@H](CCCN)NC(=O)[C@H](C23CC4CC(CC(C4)C2)C3)NC(=O)[C@H](CCCN)NC(=O)[C@@H]2CCCN2C(=O)[C@@H](Cc2ccccc2)NC(=O)[C@H](CCCN)NC1=O	3.9
CC(C)C[C@@H]1NC(=O)[C@H](CCCN)NC(=O)[C@H](C(C)C)NC(=O)[C@@H]2CCCN2C(=O)[C@@H](Cc2ccccc2)NC(=O)[C@H](CC(C)C)NC(=O)[C@H](CCCN)NC(=O)[C@H](C(C)C)NC(=O)[C@@H]2CCCN2C(=O)[C@@H](Cc2ccccc2)NC1=O [GRAMICIDIN S] (cyclo(L[dF]PV[Orn]L[dF]PV[Orn]))	2
NCCC[C@@H]1NC(=O)[C@H](C23CC4CC(CC(C4)C2)C3)NC(=O)[C@H](CCCN)NC(=O)[C@@H]2CCCN2C(=O)[C@@H](Cc2ccccc2)NC(=O)[C@H](CCCN)NC(=O)[C@H](C23CC4CC(CC(C4)C2)C3)NC(=O)[C@H](CCCN)NC(=O)[C@@H]2CCCN2C(=O)[C@@H](Cc2ccccc2)NC1=O (cyclo([Orn][dF]P[Orn][Gly(1-adamantyl)][Orn][dF]P[Orn][Gly(1-adamantyl)]))	62.5
CC(C)C[C@@H]1NC(=O)[C@H](CCCN)NC(=O)[C@H](C(C)C)NC(=O)[C@@H]2CCCN2C(=O)[C@@H](Cc2ccccc2)NC(=O)[C@H](CC(C)C)NC(=O)[C@H](CCCN)NC(=O)[C@H](C(C)C)NC(=O)[C@H](CCCN)NC(=O)[C@H](CC(C)C)NC(=O)[C@@H]2CCCN2C(=O)[C@@H](Cc2ccccc2)NC(=O)[C@H](C(C)C)NC(=O)[C@H](CCCN)NC1=O (cyclo(L[Orn]V[Orn]L[dF]PV[Orn]L[Orn]V[dF]P))	0.1

Problem: Record request: selectivity ratio value, item CC(C)C[C@@H]1NC(=O)[C@H](CCCN)NC(=O)[C@H](C23CC4CC(CC(C4)C2)C3)NC(=O)[C@H](CCCN)NC(=O)[C@@H]2CCCN2C(=O)[C@@H](Cc2ccccc2)NC(=O)[C@H](CCCN)NC(=O)[C@H](CC23CC4CC(CC(C4)C2)C3)NC(=O)[C@H](CCCN)NC(=O)[C@H](C(C)C)NC(=O)[C@H](CCCN)NC(=O)[C@@H]2CCCN2C(=O)[C@@H](Cc2ccccc2)NC(=O)[C@H](CCCN)NC1=O
Solution: 2

Problem: Record request: selectivity ratio value, item CC(C)C[C@@H]1NC(=O)[C@H](CCCN)NC(=O)[C@H](C(C)C)NC(=O)[C@H](CCCN)NC(=O)[C@@H]2CCCN2C(=O)[C@@H](Cc2ccccc2)NC(=O)[C@H](CCCN)NC(=O)[C@H](CC(C)C)NC(=O)[C@H](CCCN)NC(=O)[C@H](C(C)C)NC(=O)[C@H](CCCN)NC(=O)[C@@H]2CCCN2C(=O)[C@@H](Cc2ccccc2)NC(=O)[C@H](CCCN)NC1=O
Solution: 11.7

Problem: Record request: selectivity ratio value, item CC(C)C[C@@H]1NC(=O)[C@H](CCCN)NC(=O)[C@H](C23CC4CC(CC(C4)C2)C3)NC(=O)[C@H](CCCN)NC(=O)[C@@H]2CCCN2C(=O)[C@@H](Cc2ccccc2)NC(=O)[C@H](CCCN)NC(=O)[C@H](CC(C)C)NC(=O)[C@H](CCCN)NC(=O)[C@H](C23CC4CC(CC(C4)C2)C3)NC(=O)[C@H](CCCN)NC(=O)[C@@H]2CCCN2C(=O)[C@@H](Cc2ccccc2)NC(=O)[C@H](CCCN)NC1=O
Solution: 2

Problem: Record request: selectivity ratio value, item CC(C)[C@@H]1NC(=O)[C@H](CCCN)NC(=O)[C@@H]2CCCN2C(=O)[C@@H](Cc2ccccc2)NC(=O)[C@H](CCCN)NC(=O)[C@H](CC23CC4CC(CC(C4)C2)C3)NC(=O)[C@H](CCCN)NC(=O)[C@H](C23CC4CC(CC(C4)C2)C3)NC(=O)[C@H](CCCN)NC(=O)[C@@H]2CCCN2C(=O)[C@@H](Cc2ccccc2)NC(=O)[C@H](CCCN)NC(=O)[C@H](CC23CC4CC(CC(C4)C2)C3)NC(=O)[C@H](CCCN)NC1=O
Solution: 1

Problem: Record request: selectivity ratio value, item CC(C)C[C@@H]1NC(=O)[C@H](CCCN)NC(=O)[C@H](C(C)C)NC(=O)[C@H](CCCN)NC(=O)[C@@H]2CCCN2C(=O)[C@@H](Cc2ccccc2)NC(=O)[C@H](CCCN)NC(=O)[C@H](CC23CC4CC(CC(C4)C2)C3)NC(=O)[C@H](CCCN)NC(=O)[C@H](C(C)C)NC(=O)[C@H](CCCN)NC(=O)[C@@H]2CCCN2C(=O)[C@@H](Cc2ccccc2)NC(=O)[C@H](CCCN)NC1=O
Solution: 7.8

Problem: Record request: selectivity ratio value, item CC(C)C[C@@H]1NC(=O)[C@H](CCCN)NC(=O)[C@H](C23CC4CC(CC(C4)C2)C3)NC(=O)[C@H](CCCN)NC(=O)[C@@H]2CCCN2C(=O)[C@@H](Cc2ccccc2)NC(=O)[C@H](CCCN)NC(=O)[C@H](CC23CC4CC(CC(C4)C2)C3)NC(=O)[C@H](CCCN)NC(=O)[C@H](C23CC4CC(CC(C4)C2)C3)NC(=O)[C@H](CCCN)NC(=O)[C@@H]2CCCN2C(=O)[C@@H](Cc2ccccc2)NC(=O)[C@H](CCCN)NC1=O
Solution: 1
